# TARGET_UNDER_TEST: F508delCFTR (Homo sapiens, UniProt P13569, DEL508-508)
# Construct: expressed in transfected cells; host or cells: CFBE41o- human lung derived epithelial cells (CFBE41o-F508delCFTR-HRP), doxycycline-inducible
# Sequence (P13569 with tags, fused parts or gaps DEL508-508): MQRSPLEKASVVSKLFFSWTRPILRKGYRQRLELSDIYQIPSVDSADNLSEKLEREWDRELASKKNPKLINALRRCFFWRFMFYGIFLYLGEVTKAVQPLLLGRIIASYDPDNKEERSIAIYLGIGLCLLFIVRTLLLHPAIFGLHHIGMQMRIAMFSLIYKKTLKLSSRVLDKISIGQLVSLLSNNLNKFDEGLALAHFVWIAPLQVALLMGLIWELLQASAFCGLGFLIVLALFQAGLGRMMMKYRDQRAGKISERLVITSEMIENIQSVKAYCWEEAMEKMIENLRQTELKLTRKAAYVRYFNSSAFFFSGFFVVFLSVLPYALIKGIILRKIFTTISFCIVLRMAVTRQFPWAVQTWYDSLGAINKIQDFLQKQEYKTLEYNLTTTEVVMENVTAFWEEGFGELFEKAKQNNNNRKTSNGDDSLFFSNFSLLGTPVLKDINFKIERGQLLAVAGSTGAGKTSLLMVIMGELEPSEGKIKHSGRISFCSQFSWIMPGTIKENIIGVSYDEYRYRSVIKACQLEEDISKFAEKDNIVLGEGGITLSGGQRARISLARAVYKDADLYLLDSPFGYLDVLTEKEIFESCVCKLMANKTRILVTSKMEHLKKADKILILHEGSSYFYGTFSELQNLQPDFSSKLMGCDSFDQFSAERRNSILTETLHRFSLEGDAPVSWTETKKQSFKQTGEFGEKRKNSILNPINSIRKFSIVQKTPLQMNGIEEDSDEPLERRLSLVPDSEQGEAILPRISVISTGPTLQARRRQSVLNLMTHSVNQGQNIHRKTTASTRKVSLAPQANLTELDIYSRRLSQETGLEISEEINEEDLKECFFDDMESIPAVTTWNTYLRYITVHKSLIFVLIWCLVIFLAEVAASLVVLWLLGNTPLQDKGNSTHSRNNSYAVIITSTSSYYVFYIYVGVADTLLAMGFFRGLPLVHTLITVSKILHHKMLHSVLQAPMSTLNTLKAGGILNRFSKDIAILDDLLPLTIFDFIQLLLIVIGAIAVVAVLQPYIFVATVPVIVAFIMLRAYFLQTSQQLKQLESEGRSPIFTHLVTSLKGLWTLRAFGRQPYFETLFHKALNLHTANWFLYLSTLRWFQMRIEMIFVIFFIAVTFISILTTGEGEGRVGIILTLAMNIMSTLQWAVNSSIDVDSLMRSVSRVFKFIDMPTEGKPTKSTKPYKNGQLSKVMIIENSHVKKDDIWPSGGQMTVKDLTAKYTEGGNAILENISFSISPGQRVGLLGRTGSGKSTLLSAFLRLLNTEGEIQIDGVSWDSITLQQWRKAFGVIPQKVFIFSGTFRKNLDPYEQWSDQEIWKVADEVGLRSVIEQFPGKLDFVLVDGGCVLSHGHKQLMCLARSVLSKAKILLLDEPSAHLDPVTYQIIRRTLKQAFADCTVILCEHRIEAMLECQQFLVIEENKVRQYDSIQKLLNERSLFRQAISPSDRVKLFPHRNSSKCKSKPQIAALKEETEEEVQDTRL
# ASSAY_NOTES: Cell Surface Expression-Horse Radish Peroxidase (CSE-HRP) Assay
# Type: cell-based
# MEASUREMENT_CONDITIONS: with co-corrector; maximum at any tested concentration
READOUT: Maximum % activity (with co-corrector)

MOLECULE	Maximum % activity (with co-corrector)
CCOc1ccc(OC)c(C2(C(=O)NS(=O)(=O)c3cccc4nc(C)ccc34)CC2)c1 [Example I-69]	+++ (≥350)
COc1cccc(C2(C(=O)NS(=O)(=O)c3cccc4ncccc34)CC2)c1 [II-56]	+++ (≥350)
COc1cccc(OC)c1C1(C(=O)NS(=O)(=O)c2cccc3ccccc23)CC1 [Example I-7]	+++ (≥350)
Cc1cnc(OC(C)C)c(C2(C(=O)NS(=O)(=O)c3cccc4[nH]ncc34)CC2)c1 [Example III-131]	+++ (≥350)
CCOc1cccc(OCC)c1C1(C(=O)NS(=O)(=O)c2cccc3ncccc23)CC1 [Example I-66]	+++ (≥350)

In: Note down Maximum % activity (with co-corrector) recorded for COc1ccc(C2CCC2)cc1C1(C(=O)NS(=O)(=O)c2cccc3nc(N)ccc23)CC1 [Example I-67]
Out: +++ (≥350)

In: Write down Maximum % activity (with co-corrector) measured for item CCc1cccc(OC)c1C1(C(=O)NS(=O)(=O)c2cccc3[nH]ncc23)CC1 [Example III-132]
Out: +++ (≥350)

In: Could you please provide reported Maximum % activity (with co-corrector) for CCOc1ccc(C)cc1C1(C(=O)NS(=O)(=O)c2cccc3nc(N)ccc23)CC1 [Example I-89] ? Thanks!
Out: +++ (≥350)

###

# TARGET_UNDER_TEST: F508delCFTR (Homo sapiens, UniProt P13569, DEL508-508)
# Construct: expressed in transfected cells; host or cells: CFBE41o- human lung derived epithelial cells (CFBE41o-F508delCFTR-HRP), doxycycline-inducible
# ASSAY_NOTES: Cell Surface Expression-Horse Radish Peroxidase (CSE-HRP) Assay;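 as to EC50 (with co-corrector): co-corrector chromenyl benzoic acid corrector at 2 or 3 µM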
# Assay type: cell-based
# MEASUREMENT_CONDITIONS: with co-corrector; read-out: EC50 (with co-corrector)
pEC50: −log10 of the molar value.
READOUT: pEC50

COMPOUND	RECORDED_VALUE
CCc1cnc(OCC(C)C)c(C2(C(=O)NS(=O)(=O)c3cccc4[nH]ncc34)CC2)c1	> 5.52
COC[C@@H](C)Oc1ccc(C)cc1C1(C(=O)NS(=O)(=O)c2cccc3ncccc23)CC1	> 5.52
CCc1cnc(OC(C)C)c(C2(C(=O)NS(=O)(=O)c3cccc4ncccc34)CC2)c1	> 5.52
Cc1ccc(S(=O)(=O)NC(=O)C2(c3ccc(Cl)cc3Cl)CC2)cc1	5.00 to 5.52
COc1ccc(C2CCC2)cc1C1(C(=O)NS(=O)(=O)c2cccc3[nH]ccc23)CC1	> 5.52
O=C(NS(=O)(=O)c1cccc2ncccc12)C1(c2ccc(C(F)(F)F)nc2C2CC2)CC1	> 5.52
COc1ccc(Br)cc1C1(C(=O)NS(=O)(=O)c2cccc3ncccc23)CC1	> 5.52
COc1cc(C2(C(=O)NS(=O)(=O)c3cccc4[nH]ccc34)CC2)c(OCC(C)C)cn1	> 5.52
COc1cccc(-c2cnn(C)c2)c1C1(C(=O)NS(=O)(=O)c2cccc3ncccc23)CC1	5.00 to 5.52
COc1ccc(OC(F)F)cc1C1(C(=O)NS(=O)(=O)c2cccc3ncccc23)CC1	> 5.52

In: Item "CCOc1ccc(C(C)(C)OC)cc1C1(C(=O)NS(=O)(=O)c2cccc3ncccc23)CC1" : provide pEC50
Out: > 5.52

In: Give reported pEC50 value for "COc1ccc(C)cc1C1(C(=O)NS(=O)(=O)c2cccc3nc(C)ccc23)CC1"
Out: > 5.52

In: Name the recorded pEC50 of the compound listed here: "COc1ccc(C2(C(=O)NS(=O)(=O)c3cccc4ccccc34)CCC2)cc1OC"
Out: < 5.00

In: // Input: "CC(C)c1nc(C(F)(F)F)ccc1C1(C(=O)NS(=O)(=O)c2cccc3ncccc23)CC1" . Output its pEC50 only.
Out: > 5.52
